- Measured target: Cytochrome P450 3A4 (Homo sapiens, UniProt P08684)
- Sequence (P08684 whole entry): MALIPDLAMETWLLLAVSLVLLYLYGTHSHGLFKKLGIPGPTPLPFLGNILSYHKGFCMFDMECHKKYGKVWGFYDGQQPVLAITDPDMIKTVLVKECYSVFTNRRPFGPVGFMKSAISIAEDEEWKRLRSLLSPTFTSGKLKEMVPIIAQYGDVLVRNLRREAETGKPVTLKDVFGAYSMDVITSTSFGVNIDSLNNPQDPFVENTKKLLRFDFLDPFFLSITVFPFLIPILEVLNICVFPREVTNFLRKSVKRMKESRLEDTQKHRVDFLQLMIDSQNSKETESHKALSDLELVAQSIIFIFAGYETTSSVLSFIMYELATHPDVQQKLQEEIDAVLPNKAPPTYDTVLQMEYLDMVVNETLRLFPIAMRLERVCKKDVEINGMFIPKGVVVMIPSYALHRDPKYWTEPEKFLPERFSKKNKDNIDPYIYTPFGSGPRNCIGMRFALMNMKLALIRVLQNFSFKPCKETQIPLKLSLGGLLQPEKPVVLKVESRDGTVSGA
- Procedure text: Inhibition of human recombinant CYP3A4 assessed as biotransformation of 7-benzyloxyquinoline to 7-hydroxyquinoline measured every 15 mins by fluorescence intensity analysis
Decision: Ki beneath 300 nM gives condition met; Ki meeting or exceeding 300 nM gives condition not met.

Strictly below 300 nM in Ki? COCO[C@@H]([C@@H]1OC(C)(C)O[C@H]1COS(=O)(=O)c1ccc(C)cc1)[C@@H](CNC(=O)c1ccccc1)c1ccc2c(c1)OCO2
condition met

More entries:
Strictly below 300 nM in Ki? COCO[C@@H]([C@@H]1OC(C)(C)O[C@H]1CO)[C@@H](CNC(=O)c1ccccc1)c1ccc2c(c1)OCO2
condition not met

Strictly below 300 nM in Ki? CC1(C)O[C@@H]([C@H](O)[C@@H](CNC(=O)c2ccccc2)c2ccc3c(c2)OCO3)[C@H](CO[Si](C)(C)C(C)(C)C)O1
condition met

Strictly below 300 nM in Ki? COCO[C@@H]([C@@H]1OC(C)(C)O[C@H]1COC(C)=O)[C@@H](CNC(=O)c1ccccc1)c1ccc2c(c1)OCO2
condition not met

Strictly below 300 nM in Ki? COCO[C@@H]([C@@H]1OC(C)(C)O[C@H]1CO[Si](C)(C)C(C)(C)C)[C@@H](CNC(=O)c1ccccc1)c1ccc2c(c1)OCO2
condition met

Strictly below 300 nM in Ki? COCO[C@@H]([C@@H]1OC(C)(C)O[C@H]1CO[Si](c1ccccc1)(c1ccccc1)C(C)(C)C)[C@@H](CNC(=O)c1ccccc1)c1ccc2c(c1)OCO2
condition not met

Strictly below 300 nM in Ki? COCO[C@@H]([C@@H]1OC(C)(C)O[C@H]1CO[Si](C)(C)C(C)(C)C)[C@@H](CNC(=O)OC(C)(C)C)c1ccc2c(c1)OCO2
condition not met
